Target: zGlyRα4b homomer (Danio rerio, UniProt A0A8M1P2L1)
Construct: full-length cDNA in pCS2+, Kozak added; cRNA in Xenopus laevis oocytes; homopentamer
Sequence (A0A8M1P2L1 25-492): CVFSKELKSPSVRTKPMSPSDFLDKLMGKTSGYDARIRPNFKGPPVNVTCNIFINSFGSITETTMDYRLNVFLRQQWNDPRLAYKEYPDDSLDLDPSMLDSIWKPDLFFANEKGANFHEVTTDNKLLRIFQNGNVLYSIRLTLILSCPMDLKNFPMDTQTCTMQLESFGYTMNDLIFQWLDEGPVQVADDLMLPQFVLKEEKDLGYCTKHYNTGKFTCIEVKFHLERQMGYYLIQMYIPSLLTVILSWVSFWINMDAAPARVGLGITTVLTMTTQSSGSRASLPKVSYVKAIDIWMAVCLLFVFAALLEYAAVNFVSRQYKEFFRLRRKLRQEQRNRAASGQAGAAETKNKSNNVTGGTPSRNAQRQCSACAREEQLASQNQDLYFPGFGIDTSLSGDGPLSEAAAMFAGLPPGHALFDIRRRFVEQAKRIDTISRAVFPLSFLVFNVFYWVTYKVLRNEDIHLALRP
Assay: two-electrode voltage clamp, Xenopus oocytes
assayEndpoint: pIC50
Numbers only, as −log10 of the molar value.

query: Field request: pIC50 | item: `O=C1C[C@@H]2OCC=C3CN4CC[C@]56c7ccccc7N1[C@H]5[C@H]2[C@H]3C[C@H]46`
result: 7.28

---

Target: zGlyRα3/ßa (Danio rerio, UniProt A0A8M1PA31+A0ACM8PZL4)
Construct: full-length cDNAs in pCS2+, cRNAs co-injected 1:1 in Xenopus laevis oocytes; heteropentamer
Assay: two-electrode voltage clamp, Xenopus oocytes
From the text: two-electrode voltage clamp, Xenopus oocytes on zGlyRα3/ßa
assayEndpoint: EC50 (µM)
Answers are plain numbers, in µM.

query: Field request: EC50 | item: NCC(=O)O [glycine]
result: 521

---

Target: zGlyRα3/ßb (Danio rerio, UniProt A0A8M1PA31+Q6DC22)
Construct: full-length cDNAs in pCS2+, cRNAs co-injected 1:1 in Xenopus laevis oocytes; heteropentamer
Sequence (A0A8M1PA31 28-450): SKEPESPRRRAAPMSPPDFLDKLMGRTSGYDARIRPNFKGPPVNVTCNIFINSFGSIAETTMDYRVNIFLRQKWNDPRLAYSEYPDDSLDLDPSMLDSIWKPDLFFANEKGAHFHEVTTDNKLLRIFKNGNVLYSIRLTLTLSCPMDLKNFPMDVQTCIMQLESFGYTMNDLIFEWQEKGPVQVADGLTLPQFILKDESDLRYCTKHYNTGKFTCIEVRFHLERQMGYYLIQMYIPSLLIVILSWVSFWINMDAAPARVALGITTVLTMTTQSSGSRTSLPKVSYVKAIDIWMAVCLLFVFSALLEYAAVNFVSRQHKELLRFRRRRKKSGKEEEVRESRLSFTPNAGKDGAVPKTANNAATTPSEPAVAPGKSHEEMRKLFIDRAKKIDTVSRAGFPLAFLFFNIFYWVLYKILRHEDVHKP
Sequence (Q6DC22 23-494): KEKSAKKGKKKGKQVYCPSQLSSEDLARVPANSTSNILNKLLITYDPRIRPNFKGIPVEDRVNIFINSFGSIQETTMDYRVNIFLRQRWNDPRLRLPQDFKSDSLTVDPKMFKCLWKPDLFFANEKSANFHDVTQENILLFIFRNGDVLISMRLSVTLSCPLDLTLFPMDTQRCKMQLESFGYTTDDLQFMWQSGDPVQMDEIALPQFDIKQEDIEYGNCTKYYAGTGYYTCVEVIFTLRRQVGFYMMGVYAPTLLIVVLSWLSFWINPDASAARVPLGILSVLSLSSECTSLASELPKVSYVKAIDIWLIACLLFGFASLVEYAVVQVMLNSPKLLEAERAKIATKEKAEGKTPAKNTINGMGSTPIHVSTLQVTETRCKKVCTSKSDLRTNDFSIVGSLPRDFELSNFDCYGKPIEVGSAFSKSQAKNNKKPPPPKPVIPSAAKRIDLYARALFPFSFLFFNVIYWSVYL
Experiment: two-electrode voltage clamp, Xenopus oocytes
assayEndpoint: pIC50
Give bare numbers, as −log10 of the molar value.

query: Field request: pIC50 | item: `O=C1C[C@@H]2OCC=C3CN4CC[C@]56c7ccccc7N1[C@H]5[C@H]2[C@H]3C[C@H]46`
result: 7.39
